TARGET_OR_TEST_SYSTEM: T1, Human 4-1BB extracellular domain recombinant protein (his-tag) (human, UniProt Q07011 24-186)
T1 construct: extracellular domain; also called Human4-1BB, his-tag; human 4-1BB extracellular region recombinant protein; not shown: his-tag
TEST_NAME: ELISA, coated human 4-1BB-his 200 ng/well; antibody 0.12 µg/ml
MEASURE: absorbance at 450 nm

Examples from the recorded data:
>  <BINDER>
137-39 VHH-hFc recombinant antibody (Fc fusion, VHH fragment inserted into vector pFclG with human IgG1 Fc tag, expressed in HEK293F; Preparation had non-specific bands, purity about 30%; not shown: human IgG1 Fc tag of the eukaryotic expression vector pFclG) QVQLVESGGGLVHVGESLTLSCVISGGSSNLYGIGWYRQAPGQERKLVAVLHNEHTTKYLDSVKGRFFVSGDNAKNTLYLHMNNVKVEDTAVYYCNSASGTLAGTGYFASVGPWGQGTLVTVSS

>  <MEASURE>
absorbance at 450 nm

>  <RESULT>
0.461

$$$$
>  <BINDER>
137-7 VHH-hFc recombinant antibody (Fc fusion, VHH fragment inserted into vector pFclG with human IgG1 Fc tag, expressed in HEK293F; also called CD137-7; not shown: human IgG1 Fc tag of the eukaryotic expression vector pFclG) QVQLVESGGGLVQPGGSLRLSCAASGFTLDSYAIAWFRQAPGKEREGVSCITSSGGSTNYADSVKGRFTISRDGAKNTVYLQLNSLKPEDTAIYYCAAFHRATCVILGEYDYWGQGTQVTVSS

>  <MEASURE>
absorbance at 450 nm

>  <RESULT>
2.37

$$$$

Consider the binder 137-18 VHH-hFc recombinant antibody (Fc fusion, VHH fragment inserted into vector pFclG with human IgG1 Fc tag, expressed in HEK293F; also called CD137-18; not shown: human IgG1 Fc tag of the eukaryotic expression vector pFclG) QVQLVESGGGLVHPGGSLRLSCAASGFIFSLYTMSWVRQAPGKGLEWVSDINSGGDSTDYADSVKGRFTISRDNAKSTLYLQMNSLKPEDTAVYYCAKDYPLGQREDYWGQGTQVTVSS and give its measured absorbance at 450 nm.
0.562
